Test: Pharmacokinetics of Zarnestra in C57BL/6 mice, oral
Format: in vivo, mouse
Conditions: mouse, plasma, Blood, oral 5 mg/kg single dose, read-out: AUC(0-t)
readout: AUC(0-t) (ng·h/mL)
Give bare numbers, in ng·h/mL.

Task: Item under review: `Cn1cncc1[C@@](N)(c1ccc(Cl)cc1)c1ccc2c(c1)c(-c1cccc(Cl)c1)cc(=O)n2C` . Reported AUC(0-t)?
Output: 130

====

Target: FTase (Homo sapiens, UniProt P49354+P49356)
Assay: Table 5A in vitro FTI (H-Ras, K-Ras protein) and Ki FTase
Assay type: biochemical
Details: read-out: H-Ras protein CLVS in vitro FTI
readout: IC50 (nM)
Numbers only, in nM.

Task: Recorded IC50 of C#Cc1cccc(-c2cc(=O)n(C)c3ccc([C@](O)(c4ccc(Cl)cc4)c4cncn4C)cc23)c1 [LNK-754] , please.
Output: 0.9
